# assayTarget: FXR (Homo sapiens (Human), UniProt Q96RI1)
# Sequence (Q96RI1 262-486): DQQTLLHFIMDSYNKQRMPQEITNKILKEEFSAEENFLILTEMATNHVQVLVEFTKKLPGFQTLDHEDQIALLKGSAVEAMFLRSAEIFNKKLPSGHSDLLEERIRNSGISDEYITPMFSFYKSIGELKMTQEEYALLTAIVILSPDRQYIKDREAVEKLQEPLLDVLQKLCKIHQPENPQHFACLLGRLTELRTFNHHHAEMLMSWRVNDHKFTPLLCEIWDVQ
# assayRemarks: FXR EC50 (FXR agonist activity reported with each example)
# Type: cell-based
observedProperty: EC50 (µM)
A number alone suffices; assume µM.

The following compounds have reported results that may help.
Query: EC50; subject: O=C(O)c1cccc2nc(C34CCC(OCc5c(-c6c(Cl)cccc6Cl)noc5C5CC5)(CC3)CO4)sc12 [Example 454] 0.68

State the recorded EC50 for this entry: COc1cncc(Cl)c1-c1noc(C2CC2)c1COC12CCC(COc3ccc(C)c(C(=O)O)n3)(CC1)CC2 [Example 120] 2.3

Tell me the measured EC50 of CN1CCN(c2ccc(C(=O)O)c3ccc(C45CCC(OCc6c(-c7c(Cl)cncc7Cl)noc6C6CC6)(CC4)CC5)nc23)CC1 [Example 413] , please. 1.5

Record request: EC50 value, item O=C(O)c1ccc2nc(C34CCC(/C=C/c5c(-c6c(Cl)cccc6Cl)noc5C5CC5)(CC3)CC4)sc2c1 [Example 180] 0.043

Quick one: EC50 of O=C(O)c1cccc(-c2noc(C34CCC(COCc5c(-c6c(Cl)cccc6Cl)noc5C5CC5)(CC3)CC4)n2)c1 [Example 151] ? 0.15

Next:
For the compound shown here, COCc1cc(C#CC23CCC(OCc4c(-c5c(Cl)cncc5Cl)noc4C4CC4)(CC2)CC3)cc(C(=O)O)c1 [Example 386] , give the reported EC50. 0.031

Tell me the measured EC50 of O=C(O)c1ccc(-c2noc(C34CCC(CNc5c(-c6c(Cl)cccc6Cl)noc5C5CC5)(CC3)CC4)n2)cc1 [Example 167] , please. 0.53

###

# assayTarget: UniProt Q96RI1
# assayRemarks: FXR EC50 (FXR agonist activity reported with each example)
# Assay type: cell-based
The following compounds are listed with their measured pEC50 values.
Worth noting: pEC50 values are minus log10 of concentrations stated in mol/L.

Worked cases, pEC50 given:
Report pEC50 for `O=C(O)c1ccc(OC2CCOCC2)c2nc(C34CCC(OCc5c(-c6c(Cl)cncc6Cl)noc5C5CC5)(CC3)CC4)ccc12` please. 7.54

Recorded pEC50 of `O=C(O)c1cccc(NC(=O)C23CCC(C=Cc4c(-c5c(Cl)cccc5Cl)noc4C4CC4)(CC2)CC3)c1Cl` , please. 5.85

Looking for the measured pEC50 of O=C(O)c1cccc(CC(O)C23CCC(OCc4c(-c5c(Cl)cccc5Cl)noc4C4CC4)(CC2)CC3)c1 (stereo not shown) , can you help? 6.55

Form field: reported pEC50 of `O=C(O)c1cc(-c2noc(C34CCC(OCc5c(-c6c(Cl)cncc6Cl)noc5C5CC5)(CC3)CC4)n2)cc(OC2CCC2)n1` 7.44

Can you look up the measured pEC50 of `Cc1cc(C(=O)O)nc2c(F)cc(OCC34CCC(OCc5c(-c6c(Cl)cncc6Cl)noc5C5CC5)(CC3)CC4)cc12` for me? 7.70

// lookup pEC50 for `O=C(O)c1ccc2nc(C34CCC(OCc5c(-c6c(Cl)cncc6Cl)noc5C5CC5)(CC3)CC4)ccc2n1` 7.28

Now take the following compound into account.
Consider the compound shown here: `CC(C)Oc1cc(C(=O)O)nc2ccc(OCC34CCC(OCc5c(-c6c(Cl)cncc6Cl)noc5C5CC5)(CC3)CC4)cc12` What is its recorded pEC50? 7.82
